Data credit: the supplement of paper PMC10567573

B1: RPAIN (parent)
chain: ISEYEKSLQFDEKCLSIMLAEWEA

- Variants of: B1
- Experiment: protein stability index of a GFP-peptide fusion (GPS, HEK-293T) (PSI 1-6); higher = more stable;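 note: lentivirally expressed fusions sorted by FACS into six bins by GFP to DsRed ratio, PSI derived from sequencing read proportions per bin multiplied by bin number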
- Conditions: c terminus: a fixed tail appended
Entries and their protein stability index values follow.
Please respond with just the number, no unit label.

> print(dat)
    var  result.number
1   E3Q           2.05
2   E5C           2.24
3   S2Q           1.81
4  E23T           1.76
5   I1T           3.12

Could you now consider this next variant?
Please indicate protein stability index recorded for E3G
1.41
